target: Cytochrome P450 2D6 (Homo sapiens)
Sequence (P10635 whole entry): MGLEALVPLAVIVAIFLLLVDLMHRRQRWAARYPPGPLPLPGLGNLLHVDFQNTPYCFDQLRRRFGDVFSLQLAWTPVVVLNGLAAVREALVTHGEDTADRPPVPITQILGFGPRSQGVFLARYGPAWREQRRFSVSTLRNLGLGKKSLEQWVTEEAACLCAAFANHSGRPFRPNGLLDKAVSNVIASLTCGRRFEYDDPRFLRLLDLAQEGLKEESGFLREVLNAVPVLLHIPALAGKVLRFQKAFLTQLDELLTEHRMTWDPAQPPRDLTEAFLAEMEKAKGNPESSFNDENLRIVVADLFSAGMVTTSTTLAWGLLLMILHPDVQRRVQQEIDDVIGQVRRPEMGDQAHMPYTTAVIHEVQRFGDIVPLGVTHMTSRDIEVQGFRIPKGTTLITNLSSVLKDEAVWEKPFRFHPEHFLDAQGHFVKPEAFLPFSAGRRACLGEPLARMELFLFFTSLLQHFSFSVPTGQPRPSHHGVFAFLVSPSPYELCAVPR
readout-type: IC50 (nM)
Number in nM, nothing else.

## Task # input molecule: COc1nn2cc(-c3c(CO)n(Cc4ccccc4Cl)c4ccc(OC(F)(F)F)cc34)nc2s1 ; wanted: its IC50
## Result 1200

* * *

molecular target: Proteinase-activated receptor 4 (Homo sapiens); assay: Antagonist activity at PAR4 TL domain in human platelets assessed as gamma-thrombin-induced PAC1 binding response preincubated for 20 mins followed by agonist addition for 20 mins by FITC based flow cytometric analysis
Sequence (Q96RI0 whole entry, the tested form may be a part): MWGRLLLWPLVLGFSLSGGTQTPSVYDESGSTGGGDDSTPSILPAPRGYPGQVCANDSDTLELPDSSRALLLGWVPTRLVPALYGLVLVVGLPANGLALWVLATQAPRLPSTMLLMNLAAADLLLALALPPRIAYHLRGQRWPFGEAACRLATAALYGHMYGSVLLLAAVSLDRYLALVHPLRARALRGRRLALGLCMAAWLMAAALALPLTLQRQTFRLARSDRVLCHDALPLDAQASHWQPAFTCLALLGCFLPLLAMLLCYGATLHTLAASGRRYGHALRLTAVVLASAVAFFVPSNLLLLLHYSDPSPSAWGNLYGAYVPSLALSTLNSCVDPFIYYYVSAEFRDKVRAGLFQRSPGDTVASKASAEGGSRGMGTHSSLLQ
readout-type: pIC50
Scale: pIC50 equals -log10([C]), with [C] in mol/L.

## Task # input molecule: COc1nn2cc(-c3c(CO)n(Cc4ccccc4Cl)c4ccc(OC(F)(F)F)cc34)nc2s1 ; wanted: its pIC50
## Result 5.36
